Experiment: in vitro
Conditions: human
Listed below: CC50 at 72 h values for each entry.

- Compound: "COc1cccc2c1C(=O)c1c(O)c3c(c(O)c1C2=O)C[C@@](O)(C(=O)CO)C[C@@H]3O[C@H]1C[C@H](N)[C@H](O)[C@H](C)O1 [doxorubicin, reference compound]"
  Readout unit: "nM"
  CC50 at 72 h: 410
- Compound: "COc1cccc2c1C(=O)c1c(O)c3c(c(O)c1C2=O)C[C@@](O)(C(=O)CO)C[C@@H]3O[C@H]1C[C@H](N)[C@@H](O)[C@H](C)O1 [epirubicin]"
  Readout unit: "nM"
  CC50 at 72 h: 490
- Compound: "CC(=O)[C@]1(O)Cc2c(O)c3c(c(O)c2[C@@H](O[C@H]2C[C@H](N)[C@H](O)[C@H](C)O2)C1)C(=O)c1ccccc1C3=O"
  Readout unit: "nM"
  CC50 at 72 h: 590

###

The following are reported IC50 results, target or system UniProt:Q02880.
Quantity kind: IC50 (µM)

- Molecule: "O=c1c(O)c(-c2cc(O)c(O)c(O)c2)oc2cc(O)cc(O)c12 [Compound 1, 3,5,7,3′,4′,5′-hexahydroxyflavone]"
  Quantity kind: "IC50"
  Reported measurement: 2.07
- Molecule: "C[C@@H](CN1CC(=O)NC(=O)C1)N1CC(=O)NC(=O)C1"
  Quantity kind: "IC50"
  Reported measurement: 34.4

###

Tested on: Doxorubicin treated human iPSC-derived cardiomyocytes
Experiment: iPSC-CM protection of MYR analogs against doxorubicin
Format: cell-based
Settings: Homo sapiens, Cardiomyocyte; discussion of Table 1; read-out: EC50 / potency for cardioprotection
Quantity kind: EC50

- Cpd smiles: "COc1cc(-c2oc3cc(O)cc(O)c3c(=O)c2O)cc(O)c1O"
  Reported measurement: "~59 µM"

###

Target: TOPOIIβ (Homo sapiens, UniProt Q02880)
Construct: purchased Inspiralis
Sequence (Q02880 whole entry): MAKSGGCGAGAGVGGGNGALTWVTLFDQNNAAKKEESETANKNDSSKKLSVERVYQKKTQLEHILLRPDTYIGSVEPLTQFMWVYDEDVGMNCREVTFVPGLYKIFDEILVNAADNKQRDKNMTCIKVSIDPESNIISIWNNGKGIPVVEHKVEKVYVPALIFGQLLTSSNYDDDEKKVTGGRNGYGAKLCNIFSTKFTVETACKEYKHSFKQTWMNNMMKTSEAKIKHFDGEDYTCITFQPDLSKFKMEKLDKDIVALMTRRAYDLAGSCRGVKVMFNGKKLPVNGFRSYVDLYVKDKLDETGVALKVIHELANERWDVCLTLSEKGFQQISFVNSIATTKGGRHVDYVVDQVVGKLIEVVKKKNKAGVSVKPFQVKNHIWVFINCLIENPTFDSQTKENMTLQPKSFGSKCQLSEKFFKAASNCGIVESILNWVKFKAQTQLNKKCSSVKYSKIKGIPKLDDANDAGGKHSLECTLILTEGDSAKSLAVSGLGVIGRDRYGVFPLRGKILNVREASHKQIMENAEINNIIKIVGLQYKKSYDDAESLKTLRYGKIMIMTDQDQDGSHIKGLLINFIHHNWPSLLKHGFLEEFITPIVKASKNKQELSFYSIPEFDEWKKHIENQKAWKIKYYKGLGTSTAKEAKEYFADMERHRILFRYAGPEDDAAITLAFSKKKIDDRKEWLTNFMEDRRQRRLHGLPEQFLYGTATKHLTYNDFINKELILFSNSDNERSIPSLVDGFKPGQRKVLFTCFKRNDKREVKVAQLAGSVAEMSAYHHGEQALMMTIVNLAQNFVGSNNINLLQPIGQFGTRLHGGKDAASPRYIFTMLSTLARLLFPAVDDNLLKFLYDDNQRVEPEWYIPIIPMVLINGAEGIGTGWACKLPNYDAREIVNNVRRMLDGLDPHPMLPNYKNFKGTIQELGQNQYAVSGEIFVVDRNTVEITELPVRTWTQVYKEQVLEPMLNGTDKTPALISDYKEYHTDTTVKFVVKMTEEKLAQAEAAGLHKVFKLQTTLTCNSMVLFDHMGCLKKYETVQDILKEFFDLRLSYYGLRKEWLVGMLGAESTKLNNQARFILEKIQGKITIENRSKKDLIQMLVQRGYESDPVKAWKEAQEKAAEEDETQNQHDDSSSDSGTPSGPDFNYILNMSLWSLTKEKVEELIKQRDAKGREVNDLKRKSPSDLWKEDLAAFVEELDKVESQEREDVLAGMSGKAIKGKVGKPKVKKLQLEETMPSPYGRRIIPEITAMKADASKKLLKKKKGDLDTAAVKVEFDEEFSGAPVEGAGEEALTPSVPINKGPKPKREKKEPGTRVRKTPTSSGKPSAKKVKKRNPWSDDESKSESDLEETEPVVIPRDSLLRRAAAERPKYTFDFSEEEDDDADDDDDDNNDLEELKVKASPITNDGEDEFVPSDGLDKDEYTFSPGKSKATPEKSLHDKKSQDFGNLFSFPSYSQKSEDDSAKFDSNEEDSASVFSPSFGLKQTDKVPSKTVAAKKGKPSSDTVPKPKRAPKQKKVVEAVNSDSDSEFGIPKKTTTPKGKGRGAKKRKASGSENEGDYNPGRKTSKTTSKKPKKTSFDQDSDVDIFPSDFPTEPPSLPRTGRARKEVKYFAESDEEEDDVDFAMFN
Assay: kDNA decatenation assay
Format: biochemical

- Compound: "O=c1cc(-c2ccc(O)c(O)c2)oc2cc(O)ccc12 [Compound 11, 7,3′,4′-trihydroxyflavone]"
  TOPOIIβ Inhibition: "−"
- Compound: "COc1ccc2c(=O)c(O)c(-c3cc(OC)c(OC)c(OC)c3)oc2c1 [Compound 36, 7,3′,4′,5′-O-tetramethylrobinetin]"
  TOPOIIβ Inhibition: "−"
- Compound: "COc1cc(-c2oc3cc(O)cc(O)c3c(=O)c2O)cc(OC)c1O [Compound 33, 3′,5′-O-dimethylmyricetin]"
  TOPOIIβ Inhibition: "−"
- Compound: "O=c1ccoc2cc(O)ccc12 [Compound 38, 7-hydroxy-4-chromone]"
  TOPOIIβ Inhibition: "−"
- Compound: "COc1cc(-c2oc3cc(O)cc(O)c3c(=O)c2O)cc(O)c1O [Compound 31, 3′-O-methylmyricetin]"
  TOPOIIβ Inhibition: "−"
- Compound: "O=c1cc(-c2cc(O)c(O)c(O)c2)oc2ccccc12 [Compound 8, 3′,4′,5′-trihydroxyflavone]"
  TOPOIIβ Inhibition: "−"
- Compound: "O=c1cc(-c2cc(O)c(O)c(O)c2)oc2cc(O)ccc12 [Compound 6, 7,3′,4′,5′-tetrahydroxyflavone]"
  TOPOIIβ Inhibition: "−"
- Compound: "COc1c(O)cc(-c2oc3cc(O)cc(O)c3c(=O)c2O)cc1O [Compound 32, 4′-O-methylmyricetin]"
  TOPOIIβ Inhibition: "−"
- Compound: "COc1cc(-c2oc3cc(O)ccc3c(=O)c2O)cc(OC)c1OC [Compound 35, 3′,4′,5′-O-trimethylrobinetin]"
  TOPOIIβ Inhibition: "−"
